B1: EHMT1 (parent)
chain: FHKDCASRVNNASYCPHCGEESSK

Variants of: B1
TEST NAME: protein stability index of a GFP-peptide fusion (GPS, HEK-293T) (PSI 1-6); higher = more stable;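 note: lentivirally expressed fusions sorted by FACS into six bins by GFP to DsRed ratio, PSI derived from sequencing read proportions per bin multiplied by bin number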
EXPERIMENTAL CONTEXT: c terminus: a fixed tail appended
READOUT TYPE: protein stability index
Give bare numbers.

Can you give me protein stability index for all of these, one by one?
1. E20N
2. C5I
3. E21C
4. S22V
5. H2E

Solution:
1. 3.37
2. 2.42
3. 3.07
4. 3.38
5. 4.62
